The measured values listed here are drawn from ChEMBL document CHEMBL4038297.

Test system: MV4-11
testDescription: Antiproliferative activity against human MV411 cells after 72 hrs by CellTitre-Glo assay
appliedConditions: MV4-11, 72 h
measureName: pIC50
Friendly reminder that pIC50 comes from taking -log10 of the concentration in mol/L.

Look over these answered cases.
>>> df
                                   compound  measuredtarget  recordednumber
0  COc1cccc([C@@]2(F)C[C@@H]2N)c1 (relative stereo)          MV4-11            5.72
1  N[C@@H]1C[C@H]1c1ccccc1.N[C@H]1C[C@@H]1c1ccccc1 (racemic)          MV4-11            3.20
2  N[C@H]1C[C@]1(F)c1cccc(F)c1 (relative stereo)          MV4-11            5.31

Then this compound:
Asked: Recorded pIC50 for N[C@H]1C[C@@]1(F)c1cccc(F)c1 (relative stereo) with MV4-11, please?
Given back: 5.09

---

measuredTarget: UniProtKB O60341
testDescription: Inhibition of recombinant human His-tagged LSD1 expressed in Escherichia coli BL21 (DE3) using H3K4me2 peptide as substrate preincubated for 10 mins followed by substrate addition measured after 20 mins by Amplex red dye based fluorescence assay
pIC50: −log10 of the molar value.
measureName: pIC50

Look over these answered cases.
In [3]: df
Out[3]:
                                   compound    measuredtarget  result
0  N[C@H]1C[C@@]1(F)c1ccc([N+](=O)[O-])cc1 (relative stereo)  UniProtKB O60341  < 4.30
1              Cc1ccc([C@]2(F)C[C@@H]2N)cc1  UniProtKB O60341  < 4.60
2  CCOc1ccc([C@@]2(F)C[C@@H]2N)cc1 (relative stereo)  UniProtKB O60341  < 4.30
3             COc1ccc([C@]2(F)C[C@@H]2N)cc1  UniProtKB O60341  < 4.60
4                  N[C@H]1C[C@]1(F)c1ccccc1  UniProtKB O60341  < 4.60
5  CCOc1ccc([C@]2(F)C[C@@H]2N)cc1 (relative stereo)  UniProtKB O60341  < 4.30
6             Cc1ccc([C@@]2(F)C[C@@H]2N)cc1  UniProtKB O60341  < 4.60
7              N[C@H]1C[C@@]1(F)c1ccc(F)cc1  UniProtKB O60341  < 4.60

Then this compound:
Asked: Recorded pIC50 for N[C@H]1C[C@]1(F)c1ccc(F)cc1 with UniProtKB O60341, please?
Given back: < 4.60

---

measuredTarget: Lysine-specific histone demethylase 1A (Homo sapiens, UniProt O60341)
testDescription: Inhibition of recombinant human His-tagged LSD1 expressed in Escherichia coli BL21 (DE3) using H3K4me2 peptide as substrate preincubated for 10 mins followed by substrate addition measured after 20 mins by Amplex red dye based fluorescence assay
pIC50: −log10 of the molar value.
measureName: pIC50

>>> df
                         compound  measurename  result
0  COc1ccc([C@@]2(F)C[C@@H]2N)cc1        pIC50  < 4.60

Asked: GET /values?readout=pIC50&item= N[C@H]1C[C@]1(F)c1ccc([N+](=O)[O-])cc1 (relative stereo)
Given back: < 4.30

Asked: GET /values?readout=pIC50&item= N[C@H]1C[C@@]1(F)c1ccccc1
Given back: < 4.60
